TARGET_SYSTEM: human ErbB2, full length, on cells (human, UniProt P04626 23-1255)
PROTOCOL_DETAILS: cell-based or functional assay
METRIC: % Inhibition @10 µg/ml (n1), ErbB2 phosphorylation in BT474 cells at 48 hours (%)
Write down the numeric answer in % and omit the unit.

Past entries and their recorded results:
monoclonal antibody 1.20 (antibody, V domains shown, Fully human IgG (gamma/kappa) from a XenoMouse XM3B-3 hybridoma; constant regions not tied to it; also called 1.20.1; 1.19) VH: EVQLVESGGGLVKPGGSLRLSCAASGFTFSSYTMNWVRQAPGKGLEWVSSISSSSSYIYYADSVKGRFTISRDNAKNSLYLQMNSLSAEDTAVYSCARGGDGYNYYYFDYWGQGTLVTVSS VL: DIVMTQSPGSLVVSLGERATITCKSSQSVFFRSNNKNCLAWYQQRPGQSPNLLIYWASTRESGVPDRFSGSGSGTDFTLTISSLQAEDVAVYYCQQYFGSPFTFGPGTKVDIK = 21
monoclonal antibody 1.39 (antibody, V domains shown, Fully human IgG (gamma/kappa) from a XenoMouse XM3B-3 hybridoma; constant regions not tied to it; also called 1.39.1; 1.39.2) VH: EVQLVESGGGLVKPGGSLRLSCAASGFTFSSYSMNWVRQAPGKGLEWVSSISSSSSYIYYADSVKGRFTISRDNAKNSLYLQMNSLRAEDTAVYYCARGGDGYNYYYFDYWGQGTLVTVSS VL: DIVMTQSPDSLAVSLGERATITCKSSQSVFFRSNNKNCLAWYQQRPGQPPNLLIYWASSRESGVPDRFSGSGSGTDFALTISSLQTEDVAVYYCQQYFGSPFTFGPGTKVDIK = 37

I am curious: what % Inhibition @10 µg/ml (n1), ErbB2 phosphorylation in BT474 cells at 48 hours value has been reported for monoclonal antibody 1.18.1 (antibody, V domains shown, Fully human IgG (gamma/kappa) from a XenoMouse XM3B-3 hybridoma; constant regions not tied to it) VH: EVQLVESGGGLVKPGGSLRLSCAASGFTFSSYSMNWVRQAPGKGLEWVSSISSSSSYIYYADSVKGRFTISRDNAKNSLYLQMNSLSAEDTAVYSCARGGDGYNYYYFDYWGQGTLVTVSS VL: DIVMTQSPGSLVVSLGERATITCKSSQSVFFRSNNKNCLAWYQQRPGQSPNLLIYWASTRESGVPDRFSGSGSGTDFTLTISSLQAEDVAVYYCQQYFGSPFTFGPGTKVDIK ?
24
